Entry source: paper PMC6061685

TARGET: aryl hydrocarbon receptor (AhR) (Rattus norvegicus, UniProt P41738)
Sequence (P41738 10-853): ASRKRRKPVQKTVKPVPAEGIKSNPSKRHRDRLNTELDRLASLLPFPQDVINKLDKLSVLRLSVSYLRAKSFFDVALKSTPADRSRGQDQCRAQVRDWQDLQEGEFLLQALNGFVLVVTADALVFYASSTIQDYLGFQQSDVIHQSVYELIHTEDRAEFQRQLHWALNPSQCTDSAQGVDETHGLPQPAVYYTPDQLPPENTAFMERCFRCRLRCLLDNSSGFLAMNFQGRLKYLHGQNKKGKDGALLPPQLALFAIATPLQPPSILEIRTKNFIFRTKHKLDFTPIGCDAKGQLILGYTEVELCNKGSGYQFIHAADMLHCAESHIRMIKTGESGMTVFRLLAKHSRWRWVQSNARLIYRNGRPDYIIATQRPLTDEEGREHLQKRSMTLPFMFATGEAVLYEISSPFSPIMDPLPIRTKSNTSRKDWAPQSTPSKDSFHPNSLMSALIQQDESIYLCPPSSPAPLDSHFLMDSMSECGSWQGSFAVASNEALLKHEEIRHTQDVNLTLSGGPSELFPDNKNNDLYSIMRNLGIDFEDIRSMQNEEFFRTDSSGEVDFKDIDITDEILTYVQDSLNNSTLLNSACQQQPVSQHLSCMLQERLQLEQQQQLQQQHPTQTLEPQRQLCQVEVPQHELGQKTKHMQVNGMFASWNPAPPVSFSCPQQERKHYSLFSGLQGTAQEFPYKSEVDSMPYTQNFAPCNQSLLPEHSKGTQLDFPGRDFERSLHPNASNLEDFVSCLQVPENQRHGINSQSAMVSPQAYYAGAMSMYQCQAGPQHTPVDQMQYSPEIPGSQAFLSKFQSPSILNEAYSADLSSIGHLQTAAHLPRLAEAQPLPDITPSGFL
EXPERIMENT DESCRIPTION: H4IIE AhR CALUX agonist assay
MEASUREMENT NAME: EC50 (nM)

1) c1ccc2c(c1)cc1ccc3cccc4ccc2c1c34 [BaP, benzo[a]pyrene, reference compound]
12.3
